For each record, write down the corresponding pEC50.
Target: hS1PR5 (hEdg8) membrane protein (Homo sapiens)
Sequence (Q9H228 whole entry): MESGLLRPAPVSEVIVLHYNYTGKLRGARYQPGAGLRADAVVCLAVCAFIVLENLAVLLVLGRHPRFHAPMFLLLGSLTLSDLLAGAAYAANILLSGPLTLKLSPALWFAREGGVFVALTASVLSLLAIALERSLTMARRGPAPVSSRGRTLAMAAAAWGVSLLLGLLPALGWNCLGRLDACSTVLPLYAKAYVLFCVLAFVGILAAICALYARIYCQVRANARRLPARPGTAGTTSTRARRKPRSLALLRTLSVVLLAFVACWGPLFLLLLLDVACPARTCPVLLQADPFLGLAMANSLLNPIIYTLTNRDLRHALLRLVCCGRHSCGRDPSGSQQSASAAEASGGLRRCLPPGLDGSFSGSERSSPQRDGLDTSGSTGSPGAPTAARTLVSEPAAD
Assay: hS1P5R GTPγS binding assay (Assay 4)
pEC50: −log10 of the molar value.

Record excerpt, results attached:
smiles_repr	assay_value
CC(C)Nc1ccc(-c2nnc(-c3cc(F)c(OC[C@H](N)CO)cc3Cl)s2)cc1Cl	7.30 to 8.00
CC(C)Oc1ccc(-c2nnc(-c3cc(F)c(OC[C@@H](N)CO)cc3Cl)s2)cc1Cl	7.30 to 8.00
CCOc1ccc(-c2nnc(-c3cc(F)c(OC[C@H](N)CO)cc3Cl)s2)cc1Cl	6.60 to 7.30

For every item below, please supply its pEC50.
1. CC(C)Oc1ccc(-c2nnc(-c3cc(F)c(OC[C@H](N)CO)cc3Cl)s2)cc1C(N)=O
2. CCOc1ccc(-c2nnc(-c3cc(F)c(OC[C@H](N)CO)cc3Cl)s2)cc1C#N

1. 5.55 to 6.60
2. 6.60 to 7.30

----------
Test system: circulating lymphocytes
Assay: Lymphocyte PD assay in rats
Format: in vivo, rat
Details: 24 hours after oral single dose at 3 mg/kg, Female CD rats (Sprague Dawley), compared to vehicle-only group
Would you please tag the item true when its Lymphocyte Counts (p < 0.05) is -90% or above, and false when it is below?

A selection of reference data follows.
molecule	qualitative_label
CC(C)Nc1ccc(-c2nnc(-c3cc(F)c(OCC(N)CO)cc3Cl)s2)cn1 (centres unmarked)	false
Cc1cc(-c2nnc(-c3cc(F)c(OC[C@H](N)[C@@H](C)O)cc3Cl)s2)cc(NC(C)C)n1	true

Quick check: does CC(C)Oc1ccc(-c2nnc(-c3cc(F)c(OC[C@H](N)CO)cc3Cl)s2)cc1Br have Lymphocyte Counts (p < 0.05) greater than or equal to -90%?
false

----------
Molecular target: S1P3 (Homo sapiens, UniProt Q99500)
Construct: host or cells: HEK293 (transient transfection)
Sequence (P32121 whole entry): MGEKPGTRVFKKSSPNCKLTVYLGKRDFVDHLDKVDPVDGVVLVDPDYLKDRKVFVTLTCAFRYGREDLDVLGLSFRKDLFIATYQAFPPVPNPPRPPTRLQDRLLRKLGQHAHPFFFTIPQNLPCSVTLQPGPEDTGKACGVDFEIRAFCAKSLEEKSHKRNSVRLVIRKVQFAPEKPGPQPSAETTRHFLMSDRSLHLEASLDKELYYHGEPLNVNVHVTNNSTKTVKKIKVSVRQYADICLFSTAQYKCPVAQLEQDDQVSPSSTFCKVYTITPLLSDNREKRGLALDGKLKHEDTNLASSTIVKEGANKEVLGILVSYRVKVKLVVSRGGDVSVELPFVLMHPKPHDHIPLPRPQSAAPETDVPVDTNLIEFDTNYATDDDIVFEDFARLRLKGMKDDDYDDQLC
Sequence (Q99500 whole entry): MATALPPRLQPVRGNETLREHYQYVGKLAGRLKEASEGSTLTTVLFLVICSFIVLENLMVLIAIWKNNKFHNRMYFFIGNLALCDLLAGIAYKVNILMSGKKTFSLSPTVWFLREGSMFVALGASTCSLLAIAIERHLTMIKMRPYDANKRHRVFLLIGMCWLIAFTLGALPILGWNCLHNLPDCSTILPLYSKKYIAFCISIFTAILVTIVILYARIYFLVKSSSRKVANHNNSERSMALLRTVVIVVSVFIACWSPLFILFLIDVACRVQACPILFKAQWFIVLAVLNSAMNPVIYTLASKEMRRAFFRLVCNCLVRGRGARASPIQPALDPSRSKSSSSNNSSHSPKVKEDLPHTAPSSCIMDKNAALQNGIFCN
Assay: S1P3 Tango β-arrestin recruitment assay in HEK293 cells (Assay 5)
Type: cell-based
Settings: read-out: Assay 5 EC50
pEC50: −log10 of the molar value.
Exercise: for every item that follows, state its recorded pEC50.

Below: 4 compounds and their reported pEC50.
compound	pEC50
N[C@H](CO)COc1cc(Cl)c(-c2nnc(-c3cccc(Cl)c3)s2)cc1F	< 5.00
CCCOc1ccc(-c2nnc(-c3cc(F)c(OC[C@H](N)CO)cc3Cl)s2)cc1Cl	< 5.00
CC(C)Oc1ccc(-c2nnc(-c3cc(F)c(OCC(N)CO)cc3Cl)s2)nc1Cl (centres unmarked)	≥ 6.60
CC(C)Oc1ccc(-c2nnc(-c3cc(F)c(OC[C@@H](N)CO)cc3Cl)s2)cn1	≥ 6.60

Please turn your attention to the following entry.
What does the data say about its pEC50? Entry: CC(C)Oc1ccc(-c2nnc(-c3cc(F)c(OC[C@H](N)[C@@H](C)OP(=O)(O)O)cc3Cl)s2)cc1Cl
≥ 6.60

----------
Molecular target: hS1P1R (hEdg1) membrane protein (Homo sapiens, UniProt P21453)
Sequence (P21453 whole entry): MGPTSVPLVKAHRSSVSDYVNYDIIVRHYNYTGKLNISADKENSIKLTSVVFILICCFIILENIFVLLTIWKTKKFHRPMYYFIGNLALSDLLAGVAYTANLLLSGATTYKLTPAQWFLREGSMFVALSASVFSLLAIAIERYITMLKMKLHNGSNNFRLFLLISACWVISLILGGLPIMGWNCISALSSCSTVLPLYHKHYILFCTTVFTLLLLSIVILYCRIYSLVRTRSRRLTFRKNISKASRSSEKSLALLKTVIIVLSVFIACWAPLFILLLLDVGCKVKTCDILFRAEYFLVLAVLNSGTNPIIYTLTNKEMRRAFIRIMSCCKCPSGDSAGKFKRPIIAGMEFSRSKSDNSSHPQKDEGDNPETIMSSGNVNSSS
Experiment: hS1P1R GTPγS binding assay (Assay 3a)
Give EC50 for every item shown.

molecule	target_or_test_system	assay_value
CC(C)Oc1ncc(-c2nnc(-c3cc(F)c(OCC(N)CO)cc3Cl)s2)cc1Cl (centres unmarked)	hS1P1R (hEdg1) membrane protein (Homo sapiens, UniProt P21453)	10 to 50 nM

Can you give me EC50 for all of these, one by one?
1. CC(C)Oc1ccc(-c2nnc(-c3cc(F)c(OC[C@@H](N)[C@@H](C)O)cc3Cl)s2)cc1Cl
2. CC(C)Oc1ccc(-c2nnc(-c3cc(Cl)c(OC[C@H](N)CO)c(Cl)c3)s2)cc1Cl
3. CC(C)Nc1cc(-c2nnc(-c3cc(F)c(OC[C@H](N)[C@@H](C)O)cc3Cl)s2)ccn1
4. CC(C)Oc1ccc(-c2nnc(-c3cc(F)c(OC[C@H](N)CO)cc3Cl)s2)nc1Cl
5. CC(C)Oc1c(Cl)cc(-c2nnc(-c3cc(F)c(OC[C@H](N)CO)cc3Cl)s2)cc1Cl

≤ 10 nM
≤ 10 nM
50 to 250 nM
10 to 50 nM
50 to 250 nM

// for each molecule below, give its EC50
1. CC(C)Nc1ncc(-c2nnc(-c3cc(F)c(OC[C@H](N)[C@@H](C)O)cc3Cl)s2)cc1Cl
2. CC(C)Oc1ccc(-c2nnc(-c3cc(F)c(OC[C@H](N)CO)c(Cl)c3)s2)cc1Cl

1. 10 to 50 nM
2. ≤ 10 nM

Every entry's value here was drawn from patent US20100249071A1.
